B1: Neutrophil cytosol factor 2, residues 456 to 514; numbered along this chain, P19878 (parent)
chain: LKKGSQVEALFSYEATQPEDLEFQEGDIILVLSKVNEEWLEGECKGKVGIFPKVFVEDC

# Variants of: B1
# measurement description: abundance fitness (aPCA) (normalised: wild type 0, dead -1); higher = more abundant; growth selection in yeast, the domain comes from the species named
# condition context: Homo sapiens
readout type: abundance fitness
Form field (numeric): enter value without unit.

What does the data say about its abundance fitness? Entry: L10T -0.528

Please give the result for F51H too. -0.18

Please give the result for D27L too. -0.28
